assayed target: ZMYND11 480-602, Q15326
Sequence (Q15326 480-602): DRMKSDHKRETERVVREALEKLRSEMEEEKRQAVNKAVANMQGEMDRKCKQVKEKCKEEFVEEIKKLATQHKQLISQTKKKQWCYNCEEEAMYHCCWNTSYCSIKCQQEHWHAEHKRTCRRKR

| binder | selected by phage display |
| --- | --- |
| NQEQPTTLSMPLLMVS [ENO4, A6NNW6] | confidence 2 (active) |
| MPELERSQYPMEWGKT [SGMS1, Q86VZ5] | confidence 2 (active) |
